test system: MCF7 breast; test: NCI-60 one-dose screen, 48 h; conditions: 10 µM unless noted
This is part of a sample that, as a whole, favours compounds with a hit. Of some 83,000 tested, about 20% had one in any assay. Activity calls are given as the source filed them. The calls were made as follows: active = growth percent below 10; inactive = the rest.
Pick from active, inactive when you respond.

COc1ccc(C(=O)/C=C/c2ccc(N3CCCCC3)cc2)cc1OC
inactive

**Q:** Status in this test for `O=C1/C(=C\c2cccc3nccnc23)SC(=S)N1CCc1ccc(O)cc1` ?
**A:** inactive

**Q:** Status in this test for `Cn1cc(-c2ccc(-c3cn(C)c4ccc(Cl)cc34)[nH]2)c2cc(Cl)ccc21` ?
**A:** inactive

----------
system: SK-MEL-5 melanoma; experiment: NCI-60 one-dose screen, 48 h (100 = growth as untreated, 0 = no growth, -100 = all killed); conditions: 10 µM unless noted
This is part of a sample that, as a whole, favours compounds with a hit. Of some 83,000 tested, about 20% had one in any assay.
Hi there, I'd appreciate the recorded growth for every entry that follows.
Give bare numbers, in %.

O=C(NC(Cc1nnc2n(Cc3ccccc3)c(=O)c3c4c(sc3n12)CCCC4)c1ccccc1)c1ccccc1 (stereo unspecified)
96.1
N=c1c(S(=O)(=O)c2ccccc2)cc2c(=O)n3ccccc3nc2n1CC1CCCO1 (stereo unspecified)
99.7
O=C(CSc1nc(-c2ccccc2)cc(=O)[nH]1)Nc1nc(-c2ccccc2)cs1
85.7
COc1ccc(C(=O)Cn2c(C(=O)c3ccc(Cl)cc3)nc3ccccc32)cc1
41.9
CCCCNC(=O)c1cc([N+](=O)[O-])cc(C2CCCCC2)c1O
-12.6
COc1ccccc1C(=O)Nc1cccc(NC(=O)c2ccoc2C)c1
20.5
CCN1C(=O)N(CC)C2C1NN=c1s/c(=C\c3cnc(C)n3C)c(=O)n12 (stereo unspecified)
17.9
O=C(Nc1cc(Cl)ccc1O)c1cccc(Nc2ccnc(C(F)(F)F)c2)c1
4.5
COc1ccc(N2CCC(=S)NC2=S)cc1
98.2
COc1ccc(-c2n[nH]c(=O)c3nc(NC(=S)Nc4ccc(Oc5ccccc5)cc4)sc23)cc1
99.9

# per-item lookup of growth; items listed below
1. Cc1ccc(CNc2ccc3nc(CCC(C)C)[nH]c3c2)cc1
2. COc1cccc(/C=N/NC(=O)c2ccccc2N2CCCC2)c1O
3. C#CCNC(=O)[C@]1(C)CCC[C@@]2(C)[C@H]1CC=C1C=C(C(C)C)CC[C@@H]12
4. C/C=C(\C)C(=O)N[C@H]1C(O)C[C@]2(C)C3CC[C@@]4(C)C(CC[C@@H]4C(C)N(C)C)C3CCC2C1O (stereo partly specified)

**A:**
1. 97.8
2. 58.4
3. 102
4. -41.3

# per-item lookup of growth; items listed below
1. O=S(=O)(NCCNc1nccc(-c2c(-c3cccc(O)c3)nc3occn23)n1)c1ccc(Br)cc1
2. Cc1ccc(C)c(/C=C2\CN(C(=O)OC(C)(C)C)C/C(=C\c3cc(C)ccc3C)C2=O)c1
3. C=C1C(=O)O[C@H]2[C@H]1CC/C(COC(=O)/C=C/C(=O)OC/C1=C/CC[C@@]3(C)O[C@H]3[C@H]3OC(=O)C(=C)[C@@H]3CC1)=C\CC[C@@]1(C)O[C@@H]21
4. Cc1ccc2nc(NC(=O)CSc3nc(-c4ccccc4)c(C#N)c4nnnn34)sc2c1
5. CN1CCN(Cc2ccc(NC(=O)c3cncc(C#Cc4cnc5ccc(Cl)nn45)c3)cc2C(F)(F)F)CC1

**A:**
4.04
45
83.1
102
-58.7

# per-item lookup of growth; items listed below
1. COc1ccc(/C=C(/c2ccccc2)[N+](=O)[O-])c(OC)c1
2. NC1=Nc2cc(OCCCCN3Cc4ccccc4C3)c(OCC3CC3)cc2C12CCCC2
3. CC(C)(C)n1cc(-c2ccnc(NCCCNS(=O)(=O)c3cccc4ccccc34)c2)c(-c2cccc(F)c2)n1
4. O=C1Nc2ccccc2/C1=C\c1c[nH]c2ccc(Br)cc12

**A:**
1. -25
2. -91.5
3. 74.5
4. 35.4

# per-item lookup of growth; items listed below
1. CC/C=C\CCC/C=C1/C(=O)C=C[C@@H]1C/C=C\CCCC(=O)OC
2. CCOC(=O)c1cc(C(=O)c2cc(OC)c(OC)c(OC)c2)n2ccccc12

**A:**
1. -32
2. 37.7

----------
tested on: BT-549 breast; test: NCI-60 one-dose screen, 48 h (100 = growth as untreated, 0 = no growth, -100 = all killed); conditions: 10 µM unless noted
This is part of a sample that, as a whole, favours compounds with a hit. Of some 83,000 tested, about 20% had one in any assay.
Hi there, I'd appreciate the recorded growth for every entry that follows.
One number for each entry, in %.

Example cases with answers are listed next.
O=C1c2ccccc2C(=O)C1c1ccc(Br)cc1
101
NS(=O)(=O)c1ccc(C(=O)NN2C(=O)c3c(Br)c(Br)c(Br)c(Br)c3C2=O)cc1
106
COc1ccc(CCN(CC(=O)N(CC(N)=O)C2CCC[C@@H]2OCc2ccccc2)C(=O)CN(C(=O)CN(CCc2ccc(Cl)cc2)C(=O)CN(C(=O)CN(C)Cc2ccccc2F)[C@H](C)C2CCCCC2)[C@H](C)C2CCCCC2)cc1OC (stereo not given in full)
47.3
COc1ccc(NC(=O)Nc2ccc(OCCCCCC(=O)NO)cc2)cc1
99.5
Cc1ccc(Cl)cc1NC(=O)c1sc2nc3c(cc2c1N)C(=O)CCC3
93.5

# per-item lookup of growth; items listed below
1. O=C(O)c1cn(C2CC2)c2cc(N3CCN(C(=O)Nc4nc(-c5ccc(Br)cc5)cs4)CC3)c(F)cc2c1=O
2. CCNC(=O)Oc1ccc(/C(=C(/C)Cc2ccc(OC)cc2)c2ccc(OCCN3CCCCC3)cc2)cc1
3. C/C=C(\C)C(=O)N[C@H]1C(O)C[C@]2(C)C3CC[C@@]4(C)C(CC[C@@H]4C(C)N(C)C)C3CCC2C1O (stereo not given in full)
4. COc1ccc(Oc2nc(Nc3ccc(N4CCOCC4)cc3)ncc2NC(=O)Nc2cc(OC)cc(OC)c2)cc1
5. CCN(CC)Cc1cc(Nc2ccnc3cc(Cl)ccc23)ccc1O

**A:**
[1.15, 92.5, 88.9, 12.5, 95.5]

# per-item lookup of growth; items listed below
1. Cc1c(CC(=S)N2CCOCC2)nnn1-c1cccc(C(F)(F)F)c1
2. CC1CCN(C(=O)CCCl)c2ccccc21 (stereo not given)
3. CCc1ccc(CCC(=O)Nc2ncc(Cc3ccccc3)s2)o1
4. CCO/C=N/C1=C(C#N)C(c2ccc(F)cc2)c2sc3c(F)cccc3c2O1 (stereo not given)
5. Cc1ccc(N2C(=O)CCC2=O)cc1
6. Cc1ccnc(Nc2ccc([N+](=O)[O-])c(NCCN3CCOCC3)n2)c1

**A:**
[112, 96.3, 63.5, 48.5, 80.6, 18.6]

# per-item lookup of growth; items listed below
1. Cc1c2cccnc2c(C)c2c1c1cc(CO)ccc1n2C
2. CCOC(=O)c1c(C)nc2c(c1N)CC(=O)N2Cc1ccc(OC)cc1
3. C=CCC(CCCC)(C(=O)OCC)C(=O)OCC
4. COc1cc2nc3sc(C(=O)Nc4ccc(C(=O)OC(C)C)cc4)c(C(=O)Nc4ccc(Cl)cc4C)n3c(=O)c2cc1OC

**A:**
1: 35; 2: 18.5; 3: 96.7; 4: 96.7

----------
Test system: MDA-MB-231 breast
Assay: NCI-60 one-dose screen, 48 h (100 = growth as untreated, 0 = no growth, -100 = all killed)
Details: 10 µM unless noted
Protocol: Cells are grown in 96 well plates and exposed to the test compound for 48 hours. Compounds are tested at a single concentration, which is 10^-5 M for most compounds. The reported endpoint is percent growth (GI% or GIPRCNT), where numbers from 0 - 100% represent growth inhibition, and numbers from -100% - 0 represent cell death. For example, a value of 40 represents 60% growth inhibition. A value of 0 means no net growth occurred over the course of the experiment. […]
Compounds without any hit were thinned out: in the full panel of roughly 83,000, 20% have a hit.
Hi there, I'd appreciate the recorded growth for every entry that follows.
Give bare numbers, in %.

Example cases with answers are listed next.
Cc1cccc2c1C[C@@]1(C2=O)C(c2ccc(C(C)(C)C)cc2)=NOS1=O (some centres not stated)
86.1
C[C@@H]1O[C@@H](O[C@@H]2C[C@H](c3ccc4c(c3O)C(=O)C3=C(C4=O)[C@@]4(O)C(=O)C[C@](C)(O)C[C@@]4(O)C=C3)O[C@H](C)[C@H]2O)CC[C@@H]1O[C@H]1C[C@@H](O)[C@H](O)[C@@H](C)O1
105
O=C(/C=C/c1ccc(Oc2ccc(Br)cc2)cc1)c1ccc(Br)cc1
101
Cc1cccc[n+]1C1c2ccccc2-c2ccccc21
98.5

# per-item lookup of growth; items listed below
1. C=C(C)[C@@H]1CCC[C@]2(C(=O)N3CCN(C)CC3)CC[C@]3(C)[C@@H](CC[C@@H]4[C@@]5(C)CC/C(=N\NC(=O)c6ccncc6)C(C)(C)[C@@H]5CC[C@]43C)[C@@H]12
2. C[C@H](C(=O)N(CCc1ccc(Cl)c(Cl)c1)Cc1cncs1)[C@@H]1CC[C@H](C[C@H](C)n2cc(CN3CCC(c4ccc(Cl)cc4)CC3)nn2)O1
3. CCN(CC)Cc1cc(Nc2ccnc3cc(Cl)ccc23)ccc1O

**A:**
1. 66.8
2. 93.5
3. 72.3
